Biological target: T1, human CD19 (human, UniProt P15391 20-556)
T1 construct: also called B-cell surface antigen B4; B-cell antigen CD19
T1 sequence: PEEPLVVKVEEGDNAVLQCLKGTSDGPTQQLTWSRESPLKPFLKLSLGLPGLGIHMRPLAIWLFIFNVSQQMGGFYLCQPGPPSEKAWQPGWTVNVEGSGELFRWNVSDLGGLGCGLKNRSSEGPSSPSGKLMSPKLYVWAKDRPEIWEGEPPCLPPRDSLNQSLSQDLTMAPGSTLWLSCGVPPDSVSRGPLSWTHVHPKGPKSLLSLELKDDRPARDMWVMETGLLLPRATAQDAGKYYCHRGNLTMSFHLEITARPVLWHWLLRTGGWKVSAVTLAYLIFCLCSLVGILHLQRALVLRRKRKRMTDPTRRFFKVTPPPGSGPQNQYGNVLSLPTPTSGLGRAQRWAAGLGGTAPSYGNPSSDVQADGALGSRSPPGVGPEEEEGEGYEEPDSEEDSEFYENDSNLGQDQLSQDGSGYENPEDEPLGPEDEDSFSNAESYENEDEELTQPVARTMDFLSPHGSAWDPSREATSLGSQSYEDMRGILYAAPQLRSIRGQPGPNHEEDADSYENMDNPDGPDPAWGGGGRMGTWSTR
Test: binding affinity relative to the parent H1L1 mAb (Example 5); assay and format not named on the sheet
Provide the recorded Fold change binding for the entries that follow.
Report the figure along with its unit, number first.

{"columns": ["binder", "Fold change binding"],
 "data": [
  ["H1.62 / L1 (antibody, V domains shown, vs H1L1 (Kabat): VH R100dE; also called 4G7 H1.62_L1) VH: EVQLVESGGGLVKPGGSLKLSCAASGYTFTSYVMHWVRQAPGKGLEWIGYINPYNDGTKYNEKFQGRVTISSDKSISTAYMELSSLRSEDTAMYYCARGTYYYGSEVFDYWGQGTLVTVSS VL: DIVMTQSPATLSLSPGERATLSCRSSKSLLNSNGNTYLYWFQQKPGQSPQLLIYRMSNLASGVPDRFSGSGSGTEFTLTISSLEPEDFAVYYCMQHLEYPFTFGAGTKLEIK", "1.65 fold"],
  ["H1.60 / L1 (antibody, V domains shown, vs H1L1 (Kabat): VH S100cL; also called 4G7 H1.60_L1) VH: EVQLVESGGGLVKPGGSLKLSCAASGYTFTSYVMHWVRQAPGKGLEWIGYINPYNDGTKYNEKFQGRVTISSDKSISTAYMELSSLRSEDTAMYYCARGTYYYGLRVFDYWGQGTLVTVSS VL: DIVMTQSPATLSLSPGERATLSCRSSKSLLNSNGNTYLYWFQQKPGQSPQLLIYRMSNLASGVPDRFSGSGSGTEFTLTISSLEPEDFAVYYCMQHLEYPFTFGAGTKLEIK", "1.56 fold"]
]}

Turning now to a further binder:
Qu. Find the recorded Fold change binding belonging to H1.52 / L1.139 (antibody, V domains shown, vs H1L1 (Kabat): VH S100cT; VL S27eV/F96N; also called 4G7 H1.52_L1.139) VH: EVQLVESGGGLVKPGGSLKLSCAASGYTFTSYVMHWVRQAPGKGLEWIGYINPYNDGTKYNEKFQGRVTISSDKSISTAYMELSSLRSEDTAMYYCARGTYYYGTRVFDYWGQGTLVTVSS VL: DIVMTQSPATLSLSPGERATLSCRSSKSLLNVNGNTYLYWFQQKPGQSPQLLIYRMSNLASGVPDRFSGSGSGTEFTLTISSLEPEDFAVYYCMQHLEYPNTFGAGTKLEIK and report it.
Ans. 1.8 fold
